Measured values drawn from ChEMBL document CHEMBL4049449 for this set.

Provide the reported EC1.5 of each item.
organism: Homo sapiens; experiment: Modulation of patient derived full length SMN2 pre mRNA splicing assessed as inclusion of exon 7
Give bare numbers, in nM.

See these solved cases before continuing.
Molecule	Unit Annotation	Observed Result
Cc1cn2cc(NC(=O)c3ccc(N4CCNC(C)C4)cc3F)nc2c(C)n1 (centres undefined)	nM	52
Cc1cn2cc(NC(=O)c3c(F)cc(N4CCNCC4)cc3Cl)ncc2n1	nM	2030
COc1cc(N2CCNC(C)C2)ccc1C(=O)Nc1cn2cc(C)nc2cn1 (centres undefined)	nM	58

I'd like to know its EC1.5. The molecule in question is Cc1cn2cc(-c3ccc4c(c3)CCN(C3CCNCC3)C4=O)nc2c(C)n1 530

----------
species on record: Homo sapiens; test: Modulation of patient derived full length SMN2 pre mRNA splicing assessed as inclusion of exon 7
The source made the active and inactive calls. The rule behind the calls is not given here.
Measure: EC1.5

Molecule	Observed Result
Cc1cn2cc(C#Cc3ccc(N4CCN(C)CC4)cc3)nc2c(C)n1	inactive
Cc1nc2c(F)cc(NC(=O)c3ccc(N4CCNCC4)cc3F)cc2o1	39 nM
Cc1cn2cc(-c3ccc4c(c3)OC(=O)N(C3CCNCC3)C4)nc2c(C)n1	4700 nM
Cc1cn2nc(NC(=O)c3ccc(N4CCNC(C)C4)cc3F)nc2c(C)n1 (centres undefined)	inactive

----------
species: Homo sapiens; experiment: Modulation of patient derived full length SMN2 pre mRNA splicing assessed as restoration of functional SMN2 to protein level
Consider the following compounds; for each one, report its EC1.5.

Worked set:
Compound	Observed Result
Cc1cn2cc(NC(=O)c3ccc(N4CCNCC4)cc3F)ncc2n1	87 nM
Cc1cn2cc(NC(=O)c3c(F)cc(N4CCNCC4)cc3Cl)ncc2n1	8760 nM
Cc1cn2cc(NC(=O)c3ccc(N4CCC(N5CCCC5)C4)cc3F)nc2c(C)n1 (centres undefined)	86 nM

Below: the item to evaluate.
Fill in: EC1.5 of Cc1cn2cc(NC(=O)c3ccc(N4CCN(C)CC4)cc3F)nc2c(C)n1 is ___ 560 nM

----------
organism: Homo sapiens; assay: Modulation of patient derived full length SMN2 pre mRNA splicing assessed as inclusion of exon 7
Calls of active or inactive are those of the source. The calls are words filed in the database; no cut-off is given here.
Measure: EC1.5

Compound	EC1.5
Cc1cn2cc(NC(=O)c3cc(F)c(N4CCNC(C)C4)cc3F)ncc2n1 (configuration not stated)	85 nM
Cc1cn2cc(NC(=O)c3ccc(C4CCNCC4)cc3)nc2c(C)n1	820 nM
Cc1cn2cc(NC(=O)c3ccc(N4CCN[C@H](C)C4)cc3F)ncc2n1	15 nM
Cc1cn2cc(/C=C/c3ccc(N4CCNCC4)cc3)nc2c(C)n1	4410 nM
Cc1cn2cc(COc3ccc(N4CCNCC4)cc3)nc2c(C)n1	inactive

Field: EC1.5. Fill in for each record below.
1. Cc1cn2cc(CCc3ccc(N4CCNCC4)cc3)nc2c(C)n1
2. Cc1cn2cc(N(C)C(=O)c3ccc(N4CCN(C)CC4)cc3)nc2c(C)n1

inactive
inactive
